Each entry below carries its reported MIC.
- Tested on: S. pyogenes GC 4563
- testDescription: MIC, broth microdilution
- conditionSummary: Streptococcus pyogenes, GC4563, S. pyogenes GC 4563; Mouse Serum pre-incubation
// units = µg/mL; emit number, no label

The cases that follow already have their MIC on record.
Problem: Give its MIC value. Item: CCCCN(CC(=O)Nc1cc(N(C)C)c2c(c1O)C(=O)C1=C(O)[C@]3(O)C(=O)C(C(N)=O)=C(O)[C@@H](N(C)C)C3CC1C2)C(=O)OCOC(=O)C(C)C (stereo partly drawn) [Example 1]
Result: 0.25

Problem: Using the record for CCCN(CC(=O)Nc1cc(N(C)C)c2c(c1O)C(=O)C1=C(O)[C@]3(O)C(=O)C(C(N)=O)=C(O)[C@@H](N(C)C)[C@@H]3C[C@@H]1C2)C(=O)OCOC(=O)c1ccc(F)cc1 [Example 8] , report its MIC.
Result: 0.12

Problem: Data request, read-out MIC, for CCCCN(CC(=O)Nc1cc(N(C)C)c2c(c1O)C(=O)C1=C(O)[C@]3(O)C(=O)C(C(N)=O)=C(O)[C@@H](N(C)C)C3CC1C2)C(=O)OCOC(=O)c1ccc(OC)cc1 (stereo partly drawn) [Example 2]
Result: 0.25

Problem: Requested read-out: MIC. Entry: CCCCN(CC(=O)Nc1cc(N(C)C)c2c(c1O)C(=O)C1=C(O)[C@]3(O)C(=O)C(C(N)=O)=C(O)[C@@H](N(C)C)[C@@H]3C[C@@H]1C2)C(=O)OCOC(=O)C(C)(C)C [Example 13]
Result: 0.5

Next:
Problem: // returns reported MIC for input CCCN(CC(=O)Nc1cc(N(C)C)c2c(c1O)C(=O)C1=C(O)[C@]3(O)C(=O)C(C(N)=O)=C(O)[C@@H](N(C)C)[C@@H]3C[C@@H]1C2)C(=O)OCOC(=O)C1CCC1 [Example 7]
Result: 0.25
